Test system: TNFα
Assay: Cot Monocyte TNFα Cell Based Assay
Conditions: Homo sapiens, Monocyte, read-out: EC50 TNF, LPS-stimulated human monocytes, TNFα TR-FRET
Recorded pEC50, one value per entry.
# reply with the number alone; pEC50 is -log10 of concentration in mol/L

Below: 8 compounds and their reported pEC50.
CC(C)(C)CNc1c(C#N)cnc2c(C#N)cc(N[C@@H](c3ccc4nccn4c3)c3cn(C4(C(F)(F)F)CC4)nn3)cc12 [Example 822] = 6.16
COc1c(C(Nc2cc(C#N)c3ncc(C#N)c(NCC(C)(C)C)c3c2)c2ccc(F)nc2C)nnn1C (stereo not drawn) [Example 908] = 6.62
CC(C)(C)CNc1c(C#N)cnc2c(C#N)cc(N[C@H](c3cn(C45CC(C4)C5)nn3)c3cccc4c(=O)[nH]ccc34)cc12 [Example 888] = 6.78
COc1c([C@@H](Nc2cc(Cl)c3ncc(C#N)c(NCC(C)(C)C)c3c2)c2ccc(F)nc2C)nnn1C12CC(C1)C2 [Example 968] = 7.03
Cn1ccc2c([C@H](Nc3cc(C#N)c4ncc(C#N)c(NCC(C)(C)C(F)(F)F)c4c3)c3cn(C45CC(C4)C5)nn3)cccc2c1=O [Example 883] = 7.89
Cc1nc(F)ccc1[C@H](Nc1cc(C#N)c2ncc(C#N)c(NCC(C)(C)C(F)(F)F)c2c1)c1cn(C2(C(F)(F)F)CC2)nn1 [Example 843] = 6.98
COc1ccc([C@H](Nc2cc(C#N)c3ncc(C#N)c(NCC(C)(C)C)c3c2)c2cn(C3(C(F)(F)F)CC3)nn2)cn1 [Example 905] = 6.67
Cc1nc(F)ccc1[C@H](Nc1cc(Cl)c2ncc(C#N)c(NCC(C)(C)C)c2c1Br)c1nnn(C2(C(F)F)CC2)c1F [Example 975] = 6.00

Bench note, TNFα: COc1c([C@@H](Nc2cc(C#N)c3ncc(C#N)c(NCC(C)(C)C)c3c2)c2ccc(F)nc2C)nnn1C12CC(C1)C2 [Example 868] , pEC50 reads 7.15

----------
Test system: TNFα
Assay: Cot Monocyte TNFα Cell Based Assay
Conditions: Homo sapiens, Monocyte, read-out: EC50 TNF, LPS-stimulated human monocytes, TNFα
Classes (EC50): category 1: < 0.1 µM; category 2: ≥ 0.1 µM and < 0.8 µM; category 3: ≥ 0.8 µM

Cn1cnc([C@H](Nc2cc(Cl)c3ncc(C#N)c(Nc4ccc(F)c(Cl)c4)c3c2)c2cn(C3CCN(C(C)(C)C)CC3)nn2)c1 = category 3
Cc1ncccc1[C@H](Nc1cc(Cl)c2ncc(C#N)c(Nc3cnc(F)c(F)c3)c2c1)c1c[nH]nn1 = category 3
Cc1nc(F)ccc1[C@H](Nc1cc(C#N)c2ncc(C#N)c(N[C@H](C)C(C)(C)C)c2c1)c1cn(C2(C(F)(F)F)CC2)nn1 = category 2
Cc1nc(F)ccc1[C@H](Nc1cc(C#N)c2ncc(C#N)c(N[C@@H](c3ccccc3)C3CC3)c2c1)c1cn(C2(C(F)(F)F)CC2)nn1 = category 2
[2H][C@](Nc1cc(Cl)c2ncc(C#N)c(Nc3cnc(F)c(F)c3)c2c1)(c1ccc(F)nc1)c1cn(C2CC2)nn1 = category 2

Problem: For the record Cc1nc(F)ccc1[C@H](Nc1cc(Cl)c2ncc(C#N)c(NCC(C)(C)C)c2c1)c1cn(Cc2c(F)cccc2F)nn1 , report the class its EC50 corresponds to.
Result: category 1

Problem: Exercise: read the entry N#Cc1cnc2c(Cl)cc(N[C@@H](c3cccnc3)c3cn(CCF)nn3)cc2c1Nc1cnc(F)c(F)c1 and state which class it falls under.
Result: category 3

Problem: The entry to classify is Cc1nc(F)ccc1[C@H](Nc1cc(Cl)c2ncc(C#N)c(NCC(C)(C)C)c2c1)c1cn(C2(C(=O)O)CC(F)(F)C2)nn1 ; which class holds it?
Result: category 3

Problem: Bin? CCN1CCC(n2cc([C@@H](Nc3cc(Cl)c4ncc(C#N)c(Nc5ccc(F)c(Cl)c5)c4c3)c3ccc(Cl)s3)nn2)CC1
Result: category 2

Problem: Form field 'band' for [2H]C([2H])([2H])C([2H])([2H])[C@@H](Nc1c(C#N)cnc2c(Cl)cc(N[C@]([2H])(c3ccc(F)nc3)c3cn(C4CC4)nn3)cc12)c1ccccc1
Result: category 3
